- Assay target: 5-LO (Rattus norvegicus, UniProt P12527)
- Construct: the supernatant was saved as the source of enzymes; endogenous in cells; host or cells: RBL-1 (rat basophilic leukemia) cells
- Sequence (P12527 whole entry): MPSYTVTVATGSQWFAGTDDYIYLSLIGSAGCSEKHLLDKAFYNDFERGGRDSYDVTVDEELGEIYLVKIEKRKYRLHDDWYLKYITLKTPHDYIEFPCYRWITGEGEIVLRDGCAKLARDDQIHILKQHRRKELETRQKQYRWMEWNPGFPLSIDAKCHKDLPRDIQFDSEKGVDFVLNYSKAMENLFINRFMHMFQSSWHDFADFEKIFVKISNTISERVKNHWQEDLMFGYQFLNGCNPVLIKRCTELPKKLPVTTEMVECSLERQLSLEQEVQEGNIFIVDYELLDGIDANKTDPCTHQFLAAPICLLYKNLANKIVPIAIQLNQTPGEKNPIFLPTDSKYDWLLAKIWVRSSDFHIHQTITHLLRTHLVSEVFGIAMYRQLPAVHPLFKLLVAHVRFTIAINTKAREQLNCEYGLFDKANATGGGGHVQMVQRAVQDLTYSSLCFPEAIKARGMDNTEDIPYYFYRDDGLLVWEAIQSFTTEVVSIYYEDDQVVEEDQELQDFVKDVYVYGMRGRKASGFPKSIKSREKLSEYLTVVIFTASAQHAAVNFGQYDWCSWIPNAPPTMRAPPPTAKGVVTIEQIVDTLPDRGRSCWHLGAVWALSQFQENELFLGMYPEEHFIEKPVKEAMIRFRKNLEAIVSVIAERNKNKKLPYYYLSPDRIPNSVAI
- Experiment summary: Procedure II: 5-LO activity (5-HETE) in broken RBL-1 cells (homogenate supernatant)
- Type: biochemical
- Experimental setup: 20 min; @ 10 .quadrature.M; RBL-1 broken cell supernatant; read-out: Proc. II 5-LO % inhibition
Observation type: inhibition at 10 µM
I'd appreciate it if you wrote the number followed by its unit.

Known results for compounds:
compound="CCc1ccc(-c2cc(C#CC(C)N(O)C(=O)CN3CCN(C)CC3)nn2-c2ccc(OC)cc2)cc1 (centres unmarked)" test_value=25%
compound="CCc1ccc(-c2cc(C#CC(C)N(O)C(=O)OC)nn2-c2ccc(OC)cc2)cc1 (centres unmarked)" test_value=78%
compound="COc1ccc(-n2nc(C#CC(C)N(O)C(=O)Cn3ccnc3)cc2-c2ccc(C)cc2)cc1 (centres unmarked)" test_value=67%
compound="CCC(C#Cc1cc(-c2ccc(Cl)cc2)n(-c2ccc(OC)cc2)n1)N(O)C(N)=O (centres unmarked)" test_value=91%
compound="CCC(=O)N(O)C(C)C#Cc1cc(-c2ccc(C)cc2)n(-c2ccc(OC)cc2)n1 (centres unmarked)" test_value=93%

Dear colleague, I am looking for the recorded inhibition at 10 µM of the following compound: COc1ccc(-n2nc(C#CC(C)N(O)C(=O)c3cccnc3)cc2-c2ccc(C)cc2)cc1 (centres unmarked)
88%

Dear colleague, I am looking for the recorded inhibition at 10 µM of the following compound: CCCNC(=O)N(O)C(C)C#Cc1cc(-c2ccc(Cl)cc2)n(-c2ccc(OC)cc2)n1 (centres unmarked)
82%

Dear colleague, I am looking for the recorded inhibition at 10 µM of the following compound: CCOC(=O)C(=O)N(O)C(C)C#Cc1cc(-c2ccc(C)cc2)n(-c2ccc(OC)cc2)n1 (centres unmarked)
71%

Data credit: patent US5925769A
